Hello, the source for this data is paper PMC10932281, in case you need it.

Items are presented alongside their recorded MIC90 of antimycotic combined with C15.
Tested on: C. glabrata 2853
protocol details: Interaction of AABs (3 µM) with antifungal agents, modified checkerboard
Assay type: cell-based, Candida glabrata
test conditions: C15 at constant 3 µM, dilutions in µg/mL
parameter: MIC90 of antimycotic combined with C15

- compound: "CC(=O)N1CCN(c2ccc(OCC3COC(Cn4ccnc4)(c4ccc(Cl)cc4Cl)O3)cc2)CC1 (stereo not shown)"
  measurement target: "C. glabrata 2853"
  parameter: "MIC90 of antimycotic combined with C15"
  assay result: 1
- compound: "OC(Cn1cncn1)(Cn1cncn1)c1ccc(F)cc1F"
  measurement target: "C. glabrata 2853"
  parameter: "MIC90 of antimycotic combined with C15"
  assay result: 2
- compound: "C[C@@H]1[C@H](O)[C@@H](C)/C=C/C=C/C=C/C=C/C=C/C=C/C=C/[C@H](O[C@@H]2O[C@H](C)[C@@H](O)[C@H](N)[C@@H]2O)C[C@@H]2O[C@](O)(C[C@@H](O)C[C@@H](O)[C@H](O)CC[C@@H](O)C[C@@H](O)CC(=O)O[C@H]1C)C[C@H](O)[C@H]2C(=O)O"
  measurement target: "C. glabrata 2853"
  parameter: "MIC90 of antimycotic combined with C15"
  assay result: 0.06
- compound: "Nc1nc(=O)[nH]cc1F"
  measurement target: "C. glabrata 2853"
  parameter: "MIC90 of antimycotic combined with C15"
  assay result: 256
- compound: "CCC(C)n1ncn(-c2ccc(N3CCN(c4ccc(OCC5COC(Cn6cncn6)(c6ccc(Cl)cc6Cl)O5)cc4)CC3)cc2)c1=O (stereo not shown)"
  measurement target: "C. glabrata 2853"
  parameter: "MIC90 of antimycotic combined with C15"
  assay result: 4096
- compound: "C[C@@H](c1ncncc1F)[C@](O)(Cn1cncn1)c1ccc(F)cc1F"
  measurement target: "C. glabrata 2853"
  parameter: "MIC90 of antimycotic combined with C15"
  assay result: 256

----------
Tested on: C. glabrata ATCC 90030
protocol details: MIC90/MFC, EUCAST broth microdilution
Type: cell-based, Candida glabrata
test conditions: ATCC 90030; AAB alone
Items are presented alongside their recorded MIC90.

- record smiles: "CCCCCCCCCCCCCCCC(=O)N(C)CCC[N+](C)(C)CC(=O)[O-]"
  measurement target: "C. glabrata ATCC 90030"
  MIC90: ">3 µM/mL"
- record smiles: "CCCCCCCCCC(=O)N(C)CCC[N+](C)(C)CC(=O)[O-]"
  measurement target: "C. glabrata ATCC 90030"
  MIC90: "3 µM/mL"
- record smiles: "CCCCCCCCCCCCCC(=O)N(C)CCC[N+](C)(C)CC(=O)[O-]"
  measurement target: "C. glabrata ATCC 90030"
  MIC90: ">3 µM/mL"
- record smiles: "CCCCCCCCCCCC(=O)N(C)CCC[N+](C)(C)CC(=O)[O-]"
  measurement target: "C. glabrata ATCC 90030"
  MIC90: ">3 µM/mL"

----------
Tested on: C. glabrata 2853 clinical strain
protocol details: MIC90/MFC, EUCAST broth microdilution
Assay type: cell-based, Candida glabrata
test conditions: Nakaseomyces glabratus, read-out: MIC90
Items are presented alongside their recorded log10 of MIC90.
parameter: log10 of MIC90 (log10 of the value in µg/mL)

- molecule: "C[C@@H]1[C@H](O)[C@@H](C)/C=C/C=C/C=C/C=C/C=C/C=C/C=C/[C@H](O[C@@H]2O[C@H](C)[C@@H](O)[C@H](N)[C@@H]2O)C[C@@H]2O[C@](O)(C[C@@H](O)C[C@@H](O)[C@H](O)CC[C@@H](O)C[C@@H](O)CC(=O)O[C@H]1C)C[C@H](O)[C@H]2C(=O)O [Amphotericin B]"
  parameter: "log10 of MIC90"
  assay result: -0.60
- molecule: "CC[C@H](C)C[C@H](C)CCCCCCCCC(=O)N[C@H]1C[C@@H](O)[C@@H](NCCN)NC(=O)[C@@H]2[C@@H](O)CCN2C(=O)[C@H]([C@H](O)CCN)NC(=O)[C@H]([C@H](O)[C@@H](O)c2ccc(O)cc2)NC(=O)[C@@H]2C[C@@H](O)CN2C(=O)[C@H]([C@@H](C)O)NC1=O [Caspofungin]"
  parameter: "log10 of MIC90"
  assay result: -1.52
- molecule: "Nc1nc(=O)[nH]cc1F [5-Fluorocytosine]"
  parameter: "log10 of MIC90"
  assay result: 2.41
- molecule: "C[C@@H](c1ncncc1F)[C@](O)(Cn1cncn1)c1ccc(F)cc1F [Voriconazole]"
  parameter: "log10 of MIC90"
  assay result: 0.30
- molecule: "CC(=O)N1CCN(c2ccc(OCC3COC(Cn4ccnc4)(c4ccc(Cl)cc4Cl)O3)cc2)CC1 (centres unmarked) [Ketoconazole]"
  parameter: "log10 of MIC90"
  assay result: 0.60
- molecule: "CCC(C)n1ncn(-c2ccc(N3CCN(c4ccc(OCC5COC(Cn6cncn6)(c6ccc(Cl)cc6Cl)O5)cc4)CC3)cc2)c1=O (centres unmarked) [Itraconazole]"
  parameter: "log10 of MIC90"
  assay result: 3.61
- molecule: "OC(Cn1cncn1)(Cn1cncn1)c1ccc(F)cc1F [Fluconazole]"
  parameter: "log10 of MIC90"
  assay result: 1.51
- molecule: "CC[C@@H]([C@H](C)O)n1ncn(-c2ccc(N3CCN(c4ccc(OC[C@@H]5CO[C@@](Cn6cncn6)(c6ccc(F)cc6F)C5)cc4)CC3)cc2)c1=O [Posaconazole]"
  parameter: "log10 of MIC90"
  assay result: 0.00

----------
Test system: C. glabrata 2853
protocol details: Interaction of AABs (3 µM) with antifungal agents, modified checkerboard
Format: cell-based, Candida glabrata
test conditions: C13 at constant 3 µM, dilutions in µg/mL
parameter: MIC90 of antimycotic combined with C13

- compound: "C[C@@H](c1ncncc1F)[C@](O)(Cn1cncn1)c1ccc(F)cc1F [Voriconazole]"
  measurement target: "C. glabrata 2853"
  assay result: 1
- compound: "CC(=O)N1CCN(c2ccc(OCC3COC(Cn4ccnc4)(c4ccc(Cl)cc4Cl)O3)cc2)CC1 (stereo not drawn) [Ketoconazole]"
  measurement target: "C. glabrata 2853"
  assay result: "2 (2)"
- compound: "C[C@@H]1[C@H](O)[C@@H](C)/C=C/C=C/C=C/C=C/C=C/C=C/C=C/[C@H](O[C@@H]2O[C@H](C)[C@@H](O)[C@H](N)[C@@H]2O)C[C@@H]2O[C@](O)(C[C@@H](O)C[C@@H](O)[C@H](O)CC[C@@H](O)C[C@@H](O)CC(=O)O[C@H]1C)C[C@H](O)[C@H]2C(=O)O [Amphotericin B]"
  measurement target: "C. glabrata 2853"
  assay result: 0.12
- compound: "OC(Cn1cncn1)(Cn1cncn1)c1ccc(F)cc1F [Fluconazole]"
  measurement target: "C. glabrata 2853"
  assay result: 16
- compound: "CCC(C)n1ncn(-c2ccc(N3CCN(c4ccc(OCC5COC(Cn6cncn6)(c6ccc(Cl)cc6Cl)O5)cc4)CC3)cc2)c1=O (stereo not drawn) [Itraconazole]"
  measurement target: "C. glabrata 2853"
  assay result: 4096
- compound: "CC[C@@H]([C@H](C)O)n1ncn(-c2ccc(N3CCN(c4ccc(OC[C@@H]5CO[C@@](Cn6cncn6)(c6ccc(F)cc6F)C5)cc4)CC3)cc2)c1=O [Posaconazole]"
  measurement target: "C. glabrata 2853"
  assay result: "4 (4)"
